# target.desc: T1, human CD3 on CD3+ Jurkat cells (human, UniProt P07766 23-207)
# T1 construct: whole, on cells; The whole CD3 complex stands on the cells; also called Human CD3 Jurkat; human CD3+ Jurkat cells
# assay.details: flow cytometry, yeast-produced IgG 100 nM on CD3+ Jurkat cells, pH 7.4
observed.property: NCB
Answer with a bare number; do not write a unit.

ADI-26906 (Antibody No. 1), human IgG1 (antibody, V domains shown, Non-pH-dependent parent; Tested as human IgG1 (yeast-produced aglycosylated, or CHO-produced); also called Ab No. 1) VH: QVQLVQSGAEVKKPGASVKVSCKASGFNIKDYYMHWVRQAPGQRLEWMGWIDLENANTIYDAKFQGRVTITRDTSASTAYMELSSLRSEDTAVYYCARDAYGRYFYDVWGQGTLVTVSS VL: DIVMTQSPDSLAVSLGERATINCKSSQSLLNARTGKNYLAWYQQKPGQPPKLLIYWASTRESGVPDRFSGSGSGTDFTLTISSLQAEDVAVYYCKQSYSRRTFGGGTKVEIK | 149

Next item in the queue.
Give the value of NCB reported for the following: ADI-48587 (Antibody No. 2), human IgG1 (antibody, V domains shown, Tested as human IgG1 (yeast-produced aglycosylated, or CHO-produced); also called Ab No. 2; parent pH-dependent antibody) VH: QVQLVQSGAEVKKPGASVKVSCKASGFNIKDYYMHWVRQAPGQRLEWMGWIDLENANTIYDAKFQGRVTITRDTSASTAYMELSSLRSEDTAVYYCARDHYHRYFYDVWGQGTLVTVSS VL: DIVMTQSPDSLAVSLGERATINCKSSQSLLNARTGHNYLAWYQQKPGQPPKLLIYWASTRESGVPDRFSGSGSGTDFTLTISSLQAEDVAVYYCKQSHSHRTFGGGTKVEIK
0
